# testSystem: T1, PD-1 molecule (refolded, purified and biotinylated PD-1 of Example 2) (UniProt Q15116 33-150, biotinylated with BirA enzyme (site not stated))
# T1 construct: also called Programmed Death-1
# T1 sequence (Q15116 33-150 limits assumed): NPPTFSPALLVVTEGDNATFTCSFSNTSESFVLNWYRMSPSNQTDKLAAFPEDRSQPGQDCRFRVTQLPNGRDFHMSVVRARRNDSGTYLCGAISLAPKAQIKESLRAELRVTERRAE
# testDescription: SPR (BIAcore T200), single-cycle kinetics; biotinylated PD-1 captured via streptavidin, PDL-1 variant in solution
endpoint: kon

Data point: high affinity PDL-1 molecule L1F2 (ligand) FTVTVPKDLYVVEYGSNMTIECKFPVEKQLDLAALQVNWLMEDKNIIQFVHGEEDLKVQHSSYRQRARLLKDQLSLGNAALQITDVKLQDAGVYLCLISYGGADYKRITVKVNAPYNKINQRILVVDPVTSEHELTCQAEGYPKAEVIWTSSDHQVLSGKTTTTNSKREEKLFNVTSTLRINTTTNEIFYCTFRRLDPEENHTAELVIPEL ; kon = 30200 M⁻¹ s⁻¹

Data point: high affinity PDL-1 molecule L3C7a (ligand) FTVTVPKDLYVVEYGSNMTIECKFPVEKQLDLAALEVHWFMEDKNIFSFVHGEEDLKVQHSSYRQRARLLKDQLSLGNAALQITDVKLQDAGVYTCLIGYKGADYKRITVKVNAPYNKINQRILVVDPVTSEHELTCQAEGYPKAEVIWTSSDHQVLSGKTTTTNSKREEKLFNVTSTLRINTTTNEIFYCTFRRLDPEENHTAELVIPEL ; kon = 120000 M⁻¹ s⁻¹

Data point: high affinity PDL-1 molecule L22C7 (ligand) FTVTVPKDLYVVEYGSNMTIECKFPVEKQLDLAALEVHWFMEDKNIISFVHGEEDLKVQHSSYRQRARLLKDQLSLGNAALQITDVKLQDAGVYRCMISYGGADYKRITVKVNAPYNKINQRILVVDPVTSEHELTCQAEGYPKAEVIWTSSDHQVLSGKTTTTNSKREEKLFNVTSTLRINTTTNEIFYCTFRRLDPEENHTAELVIPEL ; kon = 11200 M⁻¹ s⁻¹
